Where do these numbers come from? They come from patent US20240209086A1.

Target: canine CD3 on canine T cells (canine PBMC) (canine, UniProt P27597 22-202)
Sequence (P27597 22-202 limits assumed, chain 1 of 3): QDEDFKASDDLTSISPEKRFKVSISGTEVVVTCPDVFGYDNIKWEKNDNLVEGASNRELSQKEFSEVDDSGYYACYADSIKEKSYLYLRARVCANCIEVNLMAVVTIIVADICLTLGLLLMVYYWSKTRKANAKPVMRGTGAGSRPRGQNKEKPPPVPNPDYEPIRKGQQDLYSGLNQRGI
Sequence (chain, as listed by the source limits assumed, chain 2 of 3): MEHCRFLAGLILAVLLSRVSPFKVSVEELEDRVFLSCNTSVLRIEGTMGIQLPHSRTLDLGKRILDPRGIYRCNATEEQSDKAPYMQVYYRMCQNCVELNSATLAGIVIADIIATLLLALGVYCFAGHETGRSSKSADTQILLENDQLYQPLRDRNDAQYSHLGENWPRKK
Sequence (chain, as listed by the source limits assumed, chain 3 of 3): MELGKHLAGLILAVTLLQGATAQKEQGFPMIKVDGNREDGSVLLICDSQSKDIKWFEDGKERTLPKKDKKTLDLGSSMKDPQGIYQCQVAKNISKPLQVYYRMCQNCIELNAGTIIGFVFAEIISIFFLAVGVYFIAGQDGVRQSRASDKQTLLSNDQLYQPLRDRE
Experiment: cell-based or functional assay
ATTRIBUTE MEASURED: CD25 Activation, Day 9, PB
Kindly provide the number alone.

Some solved cases for reference:
{"columns": ["BINDER", "CD25 Activation, Day 9, PB"],
 "data": [
  ["PMX184 (monospecific anti-canine CD3, canine IgG-B effector function deficient Fc) (antibody, V domains shown) VH: ELTLQESGPGLVKPSQTLSLTCGVSGGSVTRSHYWNWVRQRPGRGLEWMGYWTGSTNYNPAFQGRISITADTAKNQFSLQLRSMTTEDTAVYFCARETTIPTFFFDYWGQGTLVTVSS VL: SYVLTQLPSKNVTLKQPAHITCGGDNIGSKSVHWYQQKLGQAPVLIIYYDSSRPTGIPERFSGANSGNTATLTISGALAEDEADYYCQVWDSGAKAWVFGEGTQLTVL", 28.2],
  ["PMX198 (monospecific anti-canine CD3, canine IgG-B effector function deficient Fc) (antibody, V domains shown) VH: EFTLQESGPGLVKPSQTLSLTCIVSGGSVTSSYYWNWIRQRPGRGLEWMGYWTGSTNYNPAFQGRISITPDTAKNQFSLQLSSMTTEDTAVYYCAREGGSSLQAFGNWGQGTLVTVSS VL: SYVLTQLPSKNVTLKQPAHITCGGDNIGRKSVHWYQQKLGQAPILIIYYDSSRPTGIPERFSGANSGNTATLTISGALAEDEADYYCQVWDSSAKASVFGGGTHLTVL", 25.5],
  ["PMX166 (monospecific anti-canine CD3, canine IgG-B effector function deficient Fc) (antibody, V domains shown) VH: ELTLQESGPGLVKPSQTLSLTCVVSGGSVTSSYFWNWIRQRPGRGLEWMGYWTGSTIYSPAFQGRISITPDTAKNQFSLQLSSMTTEDTAVYYCSREGGSTLGAFAYWGQGTLVTVSS VL: SYVLTQLPSKNVTLKQPAHITCGGDNIGSKSVHWYQQKLGQAPVLIIYYDSSRPTGIPERFSGANSGNTATLTISGALAEDEADYYCQVWDSSAKASVFGGGTHLTVL", 22]
]}

// CD25 Activation, Day 9, PB lookup, key: PMX175 (monospecific anti-canine CD3, canine IgG-B effector function deficient Fc) (antibody, V domains shown) VH: ELTLQESGPGLVKPSQTLSLTCVVSGGSVTSTYYWNWIRQRPGRGLEWMGYWTGTTNYNPAFQGRISITADTAKNQFSLQLSSMTTEDTAVYYCAREDLVTVGSGAFNYWGQGTLVTVSS VL: SYVLTQLPSKNVTLKQPAHITCGGDNIGSKSVHWYQQKLGQAPVLIIYYDSSRPTGIPERFSGANSGNTATLTISGALAEDEADYYCQVWDSSATWVFGEGTQLTVL 9.46

// CD25 Activation, Day 9, PB lookup, key: PMX159 (monospecific anti-canine CD3, canine IgG-B effector function deficient Fc) (antibody, V domains shown) VH: ELTLQESGPGLVKPSQTLSLTCVVSGGSVTRSYYWNWIRQRPGRGLEWMGYWTGSTIYNPTFQGRISITADTAKSQFSLQLRSMTTEDTAMYFCAREGGKSLGAFAYWGQGTLVTVSS VL: SYVLTQLPSKNVTLKQPAHITCGGDKIGSKNVHWYQQKLGQAPVMIIYYDSSRPTGIPERFSGANSGNTATLTISGALAEDEADYYCQVWDSSAKAAVFGGGTHLTVL 13.1

// CD25 Activation, Day 9, PB lookup, key: PMX183 (monospecific anti-canine CD3, canine IgG-B effector function deficient Fc) (antibody, V domains shown) VH: ELTLQESGPGLVKPSQTLSLTCVVSGGSVTNSYYWNWIRQRPGRELEWMGYWTGGTKYNPAFQGRISISADTAKNQFSLQLTSMTTEDTAVYYCARDRDRRVPHAYGYWGQGTLVTVSS VL: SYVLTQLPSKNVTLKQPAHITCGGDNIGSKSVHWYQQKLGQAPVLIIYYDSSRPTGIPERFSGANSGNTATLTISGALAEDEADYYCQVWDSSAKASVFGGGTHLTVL 13.3

// CD25 Activation, Day 9, PB lookup, key: PMX176 (monospecific anti-canine CD3, canine IgG-B effector function deficient Fc) (antibody, V domains shown) VH: EVQLVESGGDLVKPGGSLRLSCVASGFTFSSYHMSWVRQAPGKGLQWVAYINSAGSTTSYTDAVQGRFTISRDNAKNTLYLQMNSLRAEDTAVYYCASEWIFMPWGQGSLVTVSS VL: SYVLTQLPSKNVTLKQPAHITCGGDNIGSKSVHWYQQKLGQAPVLIIYYDSSRPTGIPERFSGANSGNTATLTISGALAEDEADYYCQVWDSSAKARVFGEGTQLTVL 10.1

// CD25 Activation, Day 9, PB lookup, key: PMX163 (monospecific anti-canine CD3, canine IgG-B effector function deficient Fc) (antibody, V domains shown) VH: ELALQESGPGLVRPSQTLSLTCVVSGGSVTRSYYWNWIRQRPGRGLEWMGYWTGTTIYNPAFQGRISITVDTAKNQFSLHLISMTTEDTAVYYCGREGGSSLGAIAYWGQGTRVTVSS VL: SYVLTQLPSKNVTLKQPAHITCGGDNIGSKSVHWYQQKLGQAPVLIIYYDSSRPTGIPERFSGANSGNTATLTISGALAEDEADYYCQVWDSSAKAAVFGGGTHLTVL 14.6

// CD25 Activation, Day 9, PB lookup, key: PMX158 (monospecific anti-canine CD3, canine IgG-B effector function deficient Fc) (antibody, V domains shown) VH: ELTLQESGPGLVKPSQTLSLTCVVSGGSVTRSYYWNWIRQRPGRGLEWMGYWTGTTNYNPAFQGRISITADTAKNQCSLQLSSMTTEDTAVYYCAREGGKLLGAFGHWGQGTLVTVSS VL: SYVLTQLPSKNVTLKQPAHITCGGDKIGSKSVHWYQQKLGQAPVLIIYYDSSRLTGIPERFSGANSGNTATLTISGALAEDEADYYCQVWDSSAKASVFGGGTHLTVL 12.3
